- TGT: UniProt:P09382
- Sequence (P09382 whole entry): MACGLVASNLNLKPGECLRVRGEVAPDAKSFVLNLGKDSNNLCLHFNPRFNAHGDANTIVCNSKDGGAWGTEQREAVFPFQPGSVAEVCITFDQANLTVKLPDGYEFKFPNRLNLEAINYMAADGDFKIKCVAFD
OBSERVABLE: IC50 (µM)
# output: bare number, implied unit µM

Example results:
[[record]]
compound = "CO[C@@H]1[C@@H](n2cc(-c3ccc(Cl)c(F)c3F)nn2)[C@@H](O)[C@@H](CO)O[C@@H]1Cc1cc(C2CCN(C(C)=O)CC2)on1"
observable = "IC50"
unit_spec = "µM"
result = 0.71

[[record]]
compound = "CO[C@@H]1[C@@H](n2cc(-c3ccc(C)c(F)c3F)nn2)[C@H]2OC(C)(C)OC[C@H]2O[C@@H]1Cc1cc(C(C)c2ccccc2)no1 (some centres not stated)"
observable = "IC50"
unit_spec = "µM"
result = 15.7


Exercise: Fill blank: measured IC50 of the compound CC(=O)N1CCC(c2cc(C[C@H]3O[C@H](CO)[C@H](O)[C@H](n4cc(-c5cc(F)c(F)c(F)c5)nn4)[C@H]3O)no2)CC1 is ____.
Key: 0.96

Exercise: Suppose we examine the compound CO[C@@H]1[C@@H](n2cc(-c3ccc(F)c(F)c3F)nn2)[C@@H](O)[C@@H](CO)O[C@@H]1Cc1cc(C2(C#N)CCCC2)on1 ; what IC50 value has been reported?
Key: 1.47

Exercise: Any idea what IC50 was measured for Cc1nc2ccc(-c3cn([C@H]4[C@@H](O)[C@@H](CO)O[C@H](CC5CC(C6CCN(C(=O)OC(C)(C)C)CC6)=NO5)[C@@H]4O)nn3)cc2s1 (some centres not stated) ?
Key: 3.84

Exercise: I have this compound here, CO[C@@H]1[C@@H](n2cc(-c3ccc(Cl)c(F)c3F)nn2)[C@@H](O)[C@@H](CO)O[C@@H]1Cc1cc(C2(C#N)CCCC2)on1 , and I need its recorded IC50.
Key: 3.21
